Below, each entry is listed with its recorded melting point.
Measurement label: melting point

[[record]]
chemical_string = "O=C(O)C(=O)c1ccc(OCCCc2ccc3ccccc3c2)cc1"
data_value = "123 to 124 °C"

[[record]]
chemical_string = "CCCCc1nc2c(=O)[nH]ccc2n1Cc1ccc(-c2ccccc2C#N)cc1"
data_value = "179 °C"

[[record]]
chemical_string = "Cc1nc(NC(=O)c2ccc(C#N)cc2)sc1C(=O)NCc1ccccc1"
data_value = "256 to 258 °C"

[[record]]
chemical_string = "O=C(Cl)c1sc2cc(Oc3ccccc3)ccc2c1Cl"
data_value = "121 to 123 °C"

[[record]]
chemical_string = "COC(=O)c1cccc(C=NO)c1"
data_value = "107 to 108 °C"

[[record]]
chemical_string = "C[C@H]1CC[C@H]2C(C)(C)[C@H](OS(=O)(=O)c3ccccc3)CC[C@]23Oc2c(c(O)cc4c2CNC4=O)C[C@]13C"
data_value = "160 to 162 °C"

[[record]]
chemical_string = "CCN1C(=O)C(C)(C)C(=O)N(C)c2cc(CN(CCn3ccc4oc(C)cc4c3=O)Cc3n[nH]c4c(C)cccc34)ccc21"
data_value = "111 to 118 °C"

[[record]]
chemical_string = "Cc1ccc(S(=O)(=O)n2cc3c(c2)SC(=C2SC(SCCc4ccc([N+](=O)[O-])cc4)=C(SCCc4ccc([N+](=O)[O-])cc4)S2)S3)cc1"
data_value = "143 to 144 °C"


====

Below, each entry is listed with its recorded melting point.
Measurement label: melting point

[[record]]
chemical_string = "COc1cc(Br)c2c(c1OC)C(=O)CC2"
measurement_label = "melting point"
data_value = "180 to 182 °C"

[[record]]
chemical_string = "CN(C)c1nc(NCc2ccc(NC(=O)c3ccc(F)cc3)cc2)c2ccc(C#N)cc2n1"
measurement_label = "melting point"
data_value = "150 °C"

[[record]]
chemical_string = "CC(C)(C)OC(=O)N1CCC(C)(c2nc(-c3ccncc3)c(-c3ccc(F)cc3)[nH]2)CC1"
measurement_label = "melting point"
data_value = "157 to 160 °C"

[[record]]
chemical_string = "FC(F)(F)c1cccc(-c2ccnc3c(Cl)cnn23)c1"
measurement_label = "melting point"
data_value = "155 to 157 °C"

[[record]]
chemical_string = "CC(=O)c1ccc(NC(=O)c2cc(Cl)cc(Cl)c2)cc1"
measurement_label = "melting point"
data_value = "199 to 200 °C"


====

Below, each entry is listed with its recorded melting point.
Measurement label: melting point

[[record]]
molecule = "CCOC(=O)c1c(Cn2cncn2)nc2cc(OC)c(O)cc2c1-c1ccc(O)c(O)c1"
data_value = "264 to 266 °C"

[[record]]
molecule = "CC1(C(O)CBr)COc2cc(Cl)ccc2O1 (stereo not given)"
data_value = "133 to 135 °C"

[[record]]
molecule = "O=C1Cn2cncc2CN1Cc1ccc(F)cc1"
data_value = "112 to 114 °C"

[[record]]
molecule = "O=P(Oc1ccccc1)(Oc1ccccc1)C1(N2CCOCC2)CCCCC1"
data_value = "103 to 106 °C"

[[record]]
molecule = "Cc1cc(NC(=O)NN(c2ccccc2)c2cccc(CN)c2)ccc1N1CCCCC1=O"
data_value = "172 to 173 °C"

[[record]]
molecule = "O=C1NCC(COc2cccc3c2SCCC3)O1 (stereo not given)"
data_value = "152 to 153 °C"

[[record]]
molecule = "O=c1oc(-c2ccc(SC(F)(F)F)cc2)nc2cccc(Cl)c12"
data_value = "135 to 140 °C"

[[record]]
molecule = "COc1c(C2CC2c2ccc(NS(C)(=O)=O)cc2)cc(N2CCC(=O)NC2=O)cc1C(C)(C)C (stereo not given)"
data_value = "265 to 266 °C"

[[record]]
molecule = "O=C(O)CCCc1ccc(S(=O)(=O)Nc2ccccc2)cn1"
data_value = "158 to 159 °C"

[[record]]
molecule = "O=c1c(-c2ccccc2)c[nH]n1-c1ccccn1"
data_value = "132 to 133 °C"

[[record]]
molecule = "CN1CCN(c2cccc3ccc(C(O)(c4ccccc4)c4ccccc4)cc23)CC1"
data_value = "218 °C"

[[record]]
molecule = "N[C@@H](Cc1ccc(C(F)(F)F)cc1)[C@H](O)c1ccc(Cl)nc1 (racemic)"
data_value = "103 to 104 °C"

[[record]]
molecule = "Nc1ccc(-c2cc(=O)c(C(=O)O)cn2-c2ccc(F)cc2)cc1"
data_value = "262 to 266 °C"

[[record]]
molecule = "CC(C)(C)NC(=O)[C@@H]1CCCN1C(=O)[C@@H](O)[C@@H](C(=O)[C@H](CC(N)=O)NCc1cnc2ccccc2n1)C(N)c1ccccc1 (stereo not given in full)"
data_value = "116 to 119 °C"

[[record]]
molecule = "COc1cccc(NC(SC)=C(C#N)S(=O)(=O)C(C)C)c1"
data_value = "107 to 110 °C"

[[record]]
molecule = "C=CCOc1ccc(C(=O)Oc2ccc(OCCCCOC(=O)C(=C)C)cc2)cc1"
data_value = "62 to 63 °C"

[[record]]
molecule = "CCOC(=O)Cc1c(C(=O)OCC)c(Br)c(C(=O)c2ccc(Cl)cc2)n1C"
data_value = "88 to 90 °C"

[[record]]
molecule = "COc1ccc2c3c(cnc2c1)CCCC3O[Si](C)(C)C(C)(C)C (stereo not given)"
data_value = "102 to 104 °C"

[[record]]
molecule = "CC1(C)CCCN(CC2(O)CCNCC2)C1"
data_value = "48 to 52 °C"

[[record]]
molecule = "NS(=O)(=O)C(F)(F)c1nnc(C(F)(F)S(N)(=O)=O)o1"
data_value = "171 to 172 °C"


====

Below, each entry is listed with its recorded melting point.
Measurement label: melting point

[[record]]
compound = "COc1ccc(C(=O)Cc2c(Cl)cncc2Cl)c2c1OC(C)(C)C2"
measurement_label = "melting point"
data_value = "127 to 131 °C"

[[record]]
compound = "OC(CCc1ccccc1)c1c[nH]cn1 (stereo unspecified)"
measurement_label = "melting point"
data_value = "144 to 146 °C"

[[record]]
compound = "Cc1nc2cc(Nc3nccc(-c4ccc(N5CCNCC5)nc4)n3)ccc2s1"
measurement_label = "melting point"
data_value = "209 to 211 °C"

[[record]]
compound = "Cc1cccc2c1nc(COc1ccc(Cl)cc1)n2CCC(C)CN(C)C (racemic)"
measurement_label = "melting point"
data_value = "80 to 82 °C"

[[record]]
compound = "Cn1cccc1-c1ccc2c(c1)C(C)(C)OC(=O)N2"
measurement_label = "melting point"
data_value = "230 °C"

[[record]]
compound = "N#Cc1cnc2sc(-c3ccccc3)cc2c1-c1ccc2[nH]ccc2c1"
measurement_label = "melting point"
data_value = "> 245 °C"

[[record]]
compound = "CC#CCOc1ccc(S(=O)(=O)N(C)C(C(=O)NO)C(C)(C)SCCn2ccnc2)cc1 (stereo unspecified)"
measurement_label = "melting point"
data_value = "97 to 100 °C"

[[record]]
compound = "Cn1cnc2nc(-c3ccc(C(F)(F)F)cc3)nn2c1=S"
measurement_label = "melting point"
data_value = "270 to 272 °C"

[[record]]
compound = "C(=C\\c1cc(/C=C/c2ccc3cc[nH]c3c2)[nH]n1)/c1ccc2cc[nH]c2c1"
measurement_label = "melting point"
data_value = "289 to 291 °C"

[[record]]
compound = "CCc1nnc2nc(-c3cccc(C(F)(F)F)c3)ccn12"
measurement_label = "melting point"
data_value = "223 to 224 °C"

[[record]]
compound = "CCOC(=O)C(C(=O)OCC)=C1NC(=O)N(c2ccc([N+](=O)[O-])cc2OC)C1=O"
measurement_label = "melting point"
data_value = "170 to 172 °C"

[[record]]
compound = "O=Cc1cccc2sc(-c3ccccc3)nc12"
measurement_label = "melting point"
data_value = "127 to 128 °C"

[[record]]
compound = "O=S1(=O)c2cccc3cccc(c23)N1CCCN1CCC(c2c[nH]c3ccccc23)CC1"
measurement_label = "melting point"
data_value = "162 °C"

[[record]]
compound = "COC(=O)c1cc2nccnc2c(Cl)c1N"
measurement_label = "melting point"
data_value = "182 to 184 °C"

[[record]]
compound = "CCCn1c(=O)c2c(nc(/C=C/c3ccc(OC(=O)c4ccccc4)c(OC)c3)n2C)n(CCC)c1=O"
measurement_label = "melting point"
data_value = "156 to 157 °C"

[[record]]
compound = "C[C@@H]([C@@H](O)c1ccc(OCc2ccccc2)cc1)N1CCC(O)(c2ccccc2)CC1"
measurement_label = "melting point"
data_value = "158 to 161 °C"

[[record]]
compound = "CCOc1ccc2[nH]cc(/C(C#N)=C/c3cccnc3)c2c1"
measurement_label = "melting point"
data_value = "196 °C"

[[record]]
compound = "O=c1[nH]c2cc(C(F)(F)F)c(N3CCOCC3)cc2n2c(=O)[nH]nc12"
measurement_label = "melting point"
data_value = "> 300 °C"

[[record]]
compound = "CC(C)(C)OC(=O)NCCc1c[nH]c2ccc(CCO)cc12"
measurement_label = "melting point"
data_value = "204 to 206 °C"

[[record]]
compound = "CC(C)(C)c1ccc2c(c1)CCC(CN1CCCCC1)C2=O (stereo unspecified)"
measurement_label = "melting point"
data_value = "47 to 49 °C"

[[record]]
compound = "CN(C(=O)C1CCCCC1)c1cccc(-c2nc(=O)c3ccccc3s2)n1"
measurement_label = "melting point"
data_value = "184 to 186 °C"

